The origin of these recorded values is paper PMC11661376.

Biological target: P2Y1 receptor (P2Y1R) (Homo sapiens, UniProt P47900)
Construct: native receptor in T24 and HEK293 cells
Sequence (P47900 whole entry): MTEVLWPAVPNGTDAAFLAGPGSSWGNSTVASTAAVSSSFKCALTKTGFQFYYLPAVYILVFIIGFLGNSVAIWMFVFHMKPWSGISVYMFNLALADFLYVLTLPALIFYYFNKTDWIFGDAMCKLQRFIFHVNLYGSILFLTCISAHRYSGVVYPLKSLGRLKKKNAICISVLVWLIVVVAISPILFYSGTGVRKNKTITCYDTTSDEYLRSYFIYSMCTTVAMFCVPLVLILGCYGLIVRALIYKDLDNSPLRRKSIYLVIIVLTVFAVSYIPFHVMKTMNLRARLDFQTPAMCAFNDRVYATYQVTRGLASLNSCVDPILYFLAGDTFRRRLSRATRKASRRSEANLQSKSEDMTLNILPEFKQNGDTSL
Experiment: agonist-induced intracellular Ca2+ mobilization (FLIPR) in T24 cells
pEC50: −log10 of the molar value.
measured.attribute: pEC50

> print(dat)
                         compound.structure  measured.result
1  CSc1nc(N)c2ncn([C@H]3[C@H](O)[C@H](O)[C@]4(COP(=O)(O)OP(=O)(O)O)C[C@H]34)c2n1             8.86
